Measured endpoint: melting point

Recorded results for 2 compounds are shown here.
>>> result("CC(C)N1CN(C(=O)c2c(F)cccc2F)C(=O)N(c2ccc(Cl)cc2)C1 [III-3]")
"130 to 131 °C"
>>> result("O=C(c1c(F)cccc1F)N1COCN(c2ccc([S+]([O-])C(F)(C(F)(F)F)C(F)(F)F)cc2F)C1=O (centres unmarked) [I-159]")
"40 to 45 °C"

May I ask what melting point has been recorded for O=C(c1c(F)cccc1F)N1CS(=O)(=O)CN(c2ccc(Cl)cc2)C1=O [II-3] ? 274 to 275 °C

May I ask what melting point has been recorded for O=C(c1c(F)cccc1F)N1CSCN(c2ccc(Cl)cc2)C1=O [II-1] ? 128.5 to 130.5 °C

May I ask what melting point has been recorded for O=C(c1c(F)cccc1F)N1C[S+]([O-])CN(c2ccc(Cl)cc2)C1=O (centres unmarked) [II-2] ? 220 to 220.5 °C

----------
- System: Spodoptera litura
- Measurement notes: Insecticidal effect for Spodoptera litura by spraying treatment to host crop (Test Example 2)
- Assay type: in vivo
- Condition details: 100 ppm; sprayed on soybean; third-instar larvae of Spodoptera litura; fifth day after
Measured endpoint: rate of dead pests (%)
Quick reminder: number only, in %, skip the unit.

>>> quantitative_readout("O=C(c1c(F)cccc1F)N1COCN(c2ccc([S+]([O-])C(F)(F)C(F)F)cc2)C1=O (centres unmarked)")
100
>>> quantitative_readout("O=C(c1c(F)cccc1F)N1COCN(c2ccc(SC(F)(F)F)c(F)c2F)C1=O")
100
>>> quantitative_readout("Cc1cc(SC(F)(F)F)c(Cl)cc1N1COCN(C(=O)c2c(F)cccc2F)C1=O")
100
>>> quantitative_readout("O=C(c1c(F)cccc1Cl)N1COCN(c2ccc([S+]([O-])C(F)(F)F)cc2Cl)C1=O (centres unmarked)")
100
>>> quantitative_readout("CS(=O)(=O)N1CN(C(=O)c2c(F)cccc2F)C(=O)N(c2ccc([S+]([O-])C(F)F)cc2F)C1 (centres unmarked)")
100
>>> quantitative_readout("COC(=O)C(=O)N1CN(C(=O)c2c(F)cccc2F)C(=O)N(c2cc(Cl)c(OC(F)(F)C(F)C(F)(F)F)cc2Cl)C1 (centres unmarked)")
100

May I ask what rate of dead pests (%) has been recorded for O=C(c1c(F)cccc1F)N1COCN(c2cc(F)c([S+]([O-])C(F)(F)F)cc2F)C1=O (centres unmarked) ? 100

May I ask what rate of dead pests (%) has been recorded for O=C(c1c(F)cccc1F)N1COCN(c2cc(F)c(SC(F)(F)F)c(F)c2)C1=O ? 100

----------
- Test system: Spodoptera litura
- Measurement notes: Insecticidal effect for Spodoptera litura by immersion treatment of host crop root (Test Example 4)
- Assay type: in vivo
- Condition details: 25 ppm; soybean root immersion 5 days; second-instar larvae of Spodoptera litura; fifth day after
Measured endpoint: rate of dead pests (%)
Quick reminder: number only, in %, skip the unit.

Recorded results for 4 compounds are shown here.
>>> quantitative_readout("O=C(c1c(F)cccc1F)N1COCN(CC(F)(F)F)C1=O [I-40]")
100
>>> quantitative_readout("O=C(c1c(F)cccc1Cl)N1COCN(c2c(F)cc(SC(F)(F)F)cc2Cl)C1=O [I-278]")
90
>>> quantitative_readout("O=C(c1c(F)cccc1Cl)N1COCN(c2ccc(SC(F)(F)F)cc2F)C1=O [I-221]")
100
>>> quantitative_readout("CC(=O)N1CN(C(=O)c2c(F)cccc2F)C(=O)N(c2ccc([S+]([O-])C(F)F)cc2F)C1 (stereo not drawn) [III-153]")
100

Query rate of dead pests (%) on Spodoptera litura for COC(=O)N1CN(C(=O)c2c(F)cccc2F)C(=O)N(c2ccc(Cl)cc2)C1 [III-13] 100
